The entries below come with measured ILS (%) IC L1210 values attached.
- System: lymphoid leukemia L1210
- ASSAY METHOD TEXT: Intracerebral (IC) lymphoid leukemia L1210 test
- Assay type: in vivo, murine
- SETUP CONDITIONS: Table XI; outstanding activity
Please state the figure in %; there is no need to write the unit.

Example results:
CCOC(=O)NC1=C(N2CC2)C(=O)C(NC(=O)OCC)=C(N2CC2)C1=O [Compound 9] : 84
O=C1C(NCCO)=C(N2CC2)C(=O)C(NCCO)=C1N1CC1 [Compound 38] : 57
CNC1=C(N2CC2)C(=O)C(NC)=C(N2CC2)C1=O [Compound 34] : 68
CN(C)C1=C(N2CC2)C(=O)C(N(C)C)=C(N2CC2)C1=O [Compound 41] : 72

Attention now turns to another entry.
// ILS (%) IC L1210 lookup, compound = NC1=C(N2CC2)C(=O)C(N)=C(N2CC2)C1=O [Compound 33] , result: 60

----------
Overview of reported solubility across a group of molecules:
- ASSAY METHOD TEXT: Room temperature water solubility
- Format: physicochemical
- SETUP CONDITIONS: water; Table VII; room temperature, approximate; read-out: Approx. H2O Sol.

CN(C)C1=C(N2CC2)C(=O)C(N(C)C)=C(N2CC2)C1=O [Compound 41] : 10000 µg/mL
O=C1C(F)=C(N2CC2)C(=O)C(N2CCOCC2)=C1N1CC1 [Compound 31] : 2000 µg/mL
CCCCNC1=C(N2CC2)C(=O)C(NCCCC)=C(N2CC2)C1=O [Compound 37] : < 100 µg/mL
CCCNC1=C(N2CC2)C(=O)C(NCCC)=C(N2CC2)C1=O [Compound 36] : < 100 µg/mL
CN(CCO)C1=C(N2CC2)C(=O)C(N(C)CCO)=C(N2CC2)C1=O [Compound 42] : 60000 µg/mL
NC(=O)CNC1=C(N2CC2)C(=O)C(NCC(N)=O)=C(N2CC2)C1=O [Compound 40] : 500 µg/mL
CNC1=C(N2CC2)C(=O)C(NC)=C(N2CC2)C1=O [Compound 34] : < 100 µg/mL
O=C1C(NCC(O)CO)=C(N2CC2)C(=O)C(NCC(O)CO)=C1N1CC1 (stereo not drawn) [Compound 39] : 30000 µg/mL
O=C1C(N2CCOCC2)=C(N2CC2)C(=O)C(N2CCOCC2)=C1N1CC1 [Compound 46] : < 100 µg/mL
O=C1C(N2CCCC2)=C(N2CC2)C(=O)C(N2CCCC2)=C1N1CC1 [Compound 43] : 500 µg/mL

# molecule CNC1=C(N2CC2C)C(=O)C(NC)=C(N2CC2C)C1=O (stereo not drawn) [Compound 26] ; its solubility = < 100 µg/mL

Reported solubility for CCNC1=C(N2CC2)C(=O)C(NCC)=C(N2CC2)C1=O [Compound 35] was 500 µg/mL

Entry O=C1C(N2CCCCC2)=C(N2CC2)C(=O)C(N2CCCCC2)=C1N1CC1 [Compound 44] ; solubility = < 100 µg/mL

// solubility value for NC1=C(N2CC2)C(=O)C(N)=C(N2CC2)C1=O [Compound 33] : < 100 µg/mL

For O=C1C(N2CCN(CCO)CC2)=C(N2CC2)C(=O)C(N2CCN(CCO)CC2)=C1N1CC1 [Compound 47] the molecule record lists solubility as 20000 µg/mL

These entries and their values trace back to patent US4146622A.
